# MEASURED ON: Cytochrome P450 1A2 (Homo sapiens, UniProt P05177)
# Sequence (P05177 whole entry): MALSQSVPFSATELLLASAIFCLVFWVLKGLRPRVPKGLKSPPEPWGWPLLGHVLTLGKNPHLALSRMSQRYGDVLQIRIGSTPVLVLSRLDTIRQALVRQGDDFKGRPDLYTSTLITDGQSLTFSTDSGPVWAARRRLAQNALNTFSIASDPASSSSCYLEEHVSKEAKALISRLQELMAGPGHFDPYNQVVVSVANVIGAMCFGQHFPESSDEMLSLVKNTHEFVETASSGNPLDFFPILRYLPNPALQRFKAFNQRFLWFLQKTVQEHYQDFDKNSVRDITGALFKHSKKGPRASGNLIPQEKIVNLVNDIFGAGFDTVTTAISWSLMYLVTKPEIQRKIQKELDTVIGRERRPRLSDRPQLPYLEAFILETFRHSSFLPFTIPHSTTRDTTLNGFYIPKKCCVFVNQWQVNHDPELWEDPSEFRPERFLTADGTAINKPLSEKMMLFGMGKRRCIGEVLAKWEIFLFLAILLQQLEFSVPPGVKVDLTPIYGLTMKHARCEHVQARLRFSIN

- STRUCTURE AS SMILES: "Cc1nc2cnc(Nc3ccccc3)nc2n(CCc2ccccc2)c1=O"
  MEASURED ON: "Cytochrome P450 1A2 (Homo sapiens, UniProt P05177)"
  AC50: "2.51 µM (inconclusive)"
- STRUCTURE AS SMILES: "COC(=O)N1CCC2(CCN(C(=O)NC(C)C)CC2)CC1"
  MEASURED ON: "Cytochrome P450 1A2 (Homo sapiens, UniProt P05177)"
  AC50: "20 µM (inconclusive)"
- STRUCTURE AS SMILES: "CC(=O)N[C@@H](Cc1c[nH]c2ccccc12)C(=O)OCc1cc(C(F)(F)F)cc(C(F)(F)F)c1"
  MEASURED ON: "Cytochrome P450 1A2 (Homo sapiens, UniProt P05177)"
  AC50: "31.6 µM (inconclusive)"
- STRUCTURE AS SMILES: "CCOC(=O)n1ccn(C)c1=S"
  MEASURED ON: "Cytochrome P450 1A2 (Homo sapiens, UniProt P05177)"
  AC50: "12.6 µM (inconclusive)"
- STRUCTURE AS SMILES: "Cn1cc(-c2nc3cnc(Oc4ccccc4)nc3n(C3CC3)c2=O)c2ccccc21"
  MEASURED ON: "Cytochrome P450 1A2 (Homo sapiens, UniProt P05177)"
  AC50: "5.01 µM (inconclusive)"

---

# MEASURED ON: Fatty acid synthase (Homo sapiens)
# Sequence (P49327 whole entry): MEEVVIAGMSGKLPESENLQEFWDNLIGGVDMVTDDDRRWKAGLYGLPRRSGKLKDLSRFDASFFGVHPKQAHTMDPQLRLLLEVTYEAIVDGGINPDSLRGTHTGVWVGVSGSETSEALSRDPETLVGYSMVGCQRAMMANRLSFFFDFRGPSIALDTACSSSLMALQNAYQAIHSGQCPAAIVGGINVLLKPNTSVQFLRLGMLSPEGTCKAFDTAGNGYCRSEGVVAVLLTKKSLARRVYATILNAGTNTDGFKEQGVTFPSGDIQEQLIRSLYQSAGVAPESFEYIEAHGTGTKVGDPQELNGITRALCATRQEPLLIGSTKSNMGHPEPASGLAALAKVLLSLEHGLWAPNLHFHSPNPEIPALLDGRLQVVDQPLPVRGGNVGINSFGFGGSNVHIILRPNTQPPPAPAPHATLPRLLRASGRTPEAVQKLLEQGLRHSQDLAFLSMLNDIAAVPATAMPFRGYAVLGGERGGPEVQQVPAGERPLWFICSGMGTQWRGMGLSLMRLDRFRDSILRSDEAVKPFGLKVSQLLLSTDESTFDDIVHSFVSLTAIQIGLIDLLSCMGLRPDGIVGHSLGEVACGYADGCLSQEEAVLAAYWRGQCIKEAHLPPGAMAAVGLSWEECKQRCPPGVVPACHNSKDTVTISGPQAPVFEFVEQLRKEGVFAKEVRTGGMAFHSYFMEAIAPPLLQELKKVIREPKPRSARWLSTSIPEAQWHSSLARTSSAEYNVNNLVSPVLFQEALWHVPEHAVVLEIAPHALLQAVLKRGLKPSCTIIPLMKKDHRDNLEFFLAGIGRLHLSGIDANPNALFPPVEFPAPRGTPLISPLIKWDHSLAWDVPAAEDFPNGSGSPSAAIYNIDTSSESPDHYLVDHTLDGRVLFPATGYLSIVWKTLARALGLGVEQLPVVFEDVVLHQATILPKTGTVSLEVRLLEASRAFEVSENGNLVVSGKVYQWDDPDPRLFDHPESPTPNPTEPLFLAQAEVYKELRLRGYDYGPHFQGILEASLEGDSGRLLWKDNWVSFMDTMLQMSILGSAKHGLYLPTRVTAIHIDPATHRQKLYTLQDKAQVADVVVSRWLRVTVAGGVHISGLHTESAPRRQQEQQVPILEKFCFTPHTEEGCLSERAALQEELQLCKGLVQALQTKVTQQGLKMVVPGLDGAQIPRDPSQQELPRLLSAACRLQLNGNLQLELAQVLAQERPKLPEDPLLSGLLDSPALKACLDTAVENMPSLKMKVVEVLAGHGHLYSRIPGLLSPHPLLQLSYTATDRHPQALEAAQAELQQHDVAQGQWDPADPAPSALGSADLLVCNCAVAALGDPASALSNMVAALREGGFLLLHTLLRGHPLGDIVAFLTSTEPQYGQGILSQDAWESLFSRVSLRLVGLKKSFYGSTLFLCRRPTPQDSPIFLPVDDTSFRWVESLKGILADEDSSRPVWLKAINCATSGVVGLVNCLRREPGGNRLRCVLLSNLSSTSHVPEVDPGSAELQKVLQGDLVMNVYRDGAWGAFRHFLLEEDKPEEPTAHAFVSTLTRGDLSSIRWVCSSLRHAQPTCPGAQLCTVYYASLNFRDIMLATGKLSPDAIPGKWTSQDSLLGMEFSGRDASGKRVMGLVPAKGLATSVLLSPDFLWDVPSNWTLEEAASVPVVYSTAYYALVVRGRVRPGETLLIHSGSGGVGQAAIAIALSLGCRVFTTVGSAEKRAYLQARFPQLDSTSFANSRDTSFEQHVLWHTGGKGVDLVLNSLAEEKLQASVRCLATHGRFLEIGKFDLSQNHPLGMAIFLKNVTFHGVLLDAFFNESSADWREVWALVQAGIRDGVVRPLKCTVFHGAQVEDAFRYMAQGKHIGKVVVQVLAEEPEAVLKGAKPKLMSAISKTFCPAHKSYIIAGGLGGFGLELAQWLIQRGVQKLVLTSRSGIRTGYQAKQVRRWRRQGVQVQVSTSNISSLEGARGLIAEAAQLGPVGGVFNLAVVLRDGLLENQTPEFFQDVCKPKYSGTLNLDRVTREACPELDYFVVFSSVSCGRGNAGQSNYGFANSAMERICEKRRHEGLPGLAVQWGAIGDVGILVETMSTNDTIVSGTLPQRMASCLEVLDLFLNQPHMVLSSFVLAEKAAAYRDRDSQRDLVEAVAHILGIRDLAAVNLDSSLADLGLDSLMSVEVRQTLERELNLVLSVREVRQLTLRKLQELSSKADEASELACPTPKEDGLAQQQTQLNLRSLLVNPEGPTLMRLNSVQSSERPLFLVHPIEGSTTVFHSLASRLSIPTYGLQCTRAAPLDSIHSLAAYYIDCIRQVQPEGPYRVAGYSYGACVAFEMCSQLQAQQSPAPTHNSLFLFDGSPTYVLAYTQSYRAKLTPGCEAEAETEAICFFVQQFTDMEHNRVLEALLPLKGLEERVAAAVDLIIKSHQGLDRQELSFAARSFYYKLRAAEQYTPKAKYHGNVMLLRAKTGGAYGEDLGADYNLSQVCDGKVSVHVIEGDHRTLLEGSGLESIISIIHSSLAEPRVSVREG
# PROCEDURE TEXT: inhibition of human FAS-TE enzyme activity – biochemical, kinetic fluorescence intensity, dose response (AID 624326);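 note: rate of fluorescence rise from hydrolysis of a fluorogenic O-methyl fluorescein ester substrate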
# Assay type: functional
Calls of active or inactive are those of the source.
Measured IC50 of individual entries

- STRUCTURE AS SMILES: "CC(C)(C)c1ccc(C(=O)NCCC(=O)Nc2cc(Cl)ccc2N2CCOCC2)cc1"
  IC50: "4.54 µM (active)"
- STRUCTURE AS SMILES: "Cc1cccc(C(=O)NCCC(=O)Nc2ccc(F)c([N+](=O)[O-])c2)c1"
  IC50: "9.57 µM (active)"
- STRUCTURE AS SMILES: "O=S(=O)(Nc1cccc(-c2ccc(N3CCCCCC3)nn2)c1)c1ccccc1F"
  IC50: "6.9 µM (active)"
- STRUCTURE AS SMILES: "COc1cc(/C=N/N(C)c2ccccc2)cc(Cl)c1O"
  IC50: "5.46 µM (active)"
- STRUCTURE AS SMILES: "N#Cc1cc2sc3nnc(-c4ccncc4)n3c2cc1C#N"
  IC50: "4.69 µM (active)"
- STRUCTURE AS SMILES: "CCCNC(=O)/C(=C/c1cn(S(=O)(=O)N(C)C)c2ccccc12)NC(=O)c1ccc(OC)cc1"
  IC50: "6.75 µM (active)"
- STRUCTURE AS SMILES: "CN1CCN(c2ccc([N+](=O)[O-])cc2/C=N/NC(=O)c2ccc(F)cc2)CC1"
  IC50: "16 µM (active)"

---

# MEASURED ON: Tumor necrosis factor (Homo sapiens)
# Sequence (P01375 whole entry): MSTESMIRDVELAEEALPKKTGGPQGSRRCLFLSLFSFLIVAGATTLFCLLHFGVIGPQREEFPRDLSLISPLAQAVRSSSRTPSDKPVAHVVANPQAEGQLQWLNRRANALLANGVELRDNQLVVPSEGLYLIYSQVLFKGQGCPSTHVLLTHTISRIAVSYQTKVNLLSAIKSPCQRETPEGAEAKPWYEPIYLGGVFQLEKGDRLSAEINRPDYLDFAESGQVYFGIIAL
# PROCEDURE TEXT: analog potency on TNFa NF-kB signaling – cell-based, revised, SAR follow-up (AID 2337)
# Format: functional
Active and inactive are the calls of the source.
Classes used: active, inactive

- COMPOUND: "CCOc1ccc(C(=O)NC2CCCc3c2cnn3-c2ccccc2F)cc1 (centres undefined)"
  MEASURED ON: "Tumor necrosis factor (Homo sapiens)"
  ASSIGNED CLASS: "inactive"
- COMPOUND: "Cc1ccc(C(=O)N2CCN(c3ccc(F)cc3)CC2)cc1S(=O)(=O)N1CCCCC1"
  MEASURED ON: "Tumor necrosis factor (Homo sapiens)"
  ASSIGNED CLASS: "active"
- COMPOUND: "CCc1cc(C(=O)NC2CCCc3c2cnn3-c2ccccc2F)no1 (centres undefined)"
  MEASURED ON: "Tumor necrosis factor (Homo sapiens)"
  ASSIGNED CLASS: "inactive"
- COMPOUND: "Cn1nccc1C(=O)N[C@H]1CCCc2c1cnn2-c1ccccc1F"
  MEASURED ON: "Tumor necrosis factor (Homo sapiens)"
  ASSIGNED CLASS: "active"

---

A set of compounds tested on Estrogen receptor beta (Homo sapiens), with measured IC50:
Activity calls are given as the source filed them.

- COMPOUND: "N#Cc1c(N/C=C2\\C(=O)NC(=O)N(Cc3ccco3)C2=O)sc2c1CCCC2"
  IC50: "> 50 µM (not active)"
- COMPOUND: "Cc1oc(-c2ccc(Cl)cc2)nc1CN1CCCC(C(=O)NCc2cccnc2)C1 (stereo unspecified)"
  IC50: "> 50 µM (not active)"
- COMPOUND: "N#CCCS(=O)(=O)c1nnnn1-c1ccccc1"
  IC50: "> 50 µM (not active)"
- COMPOUND: "Cc1cccc(-n2c(SCCC(=O)O)nnc2-c2cccs2)c1C"
  IC50: "> 50 µM (not active)"
- COMPOUND: "CCCc1nc2sc3ccccc3c(=O)c2c(=O)n1Cc1ccco1"
  IC50: "11.6 µM (active)"
- COMPOUND: "Cc1cc(C)cc(OCC(=O)Nc2ccc(N3CCCC3)cc2)c1"
  IC50: "1.56 µM (active)"

---

# PROCEDURE TEXT: alpha-synuclein stem-loop luciferase translation blockers – H4 neuroglioma cells, luminescence, confirmation (AID 1988)
# Type: functional, cell-based
Activity calls are given as the source filed them.

- COMPOUND: "CCOc1ccc(-c2nnc(SCC(=O)Nc3ccc4c(c3)c3ccccc3n4CC)n2N)cc1"
  EC50: "11.6 µM (active)"
- COMPOUND: "Oc1c(C(Nc2nccs2)c2ccc(C(F)(F)F)cc2)ccc2cccnc12 (centres undefined)"
  EC50: "< 0.1 µM (active)"
- COMPOUND: "Sc1nnc(Cc2sc(-c3ccccc3)nc2-c2ccccc2)o1"
  EC50: "> 120 µM (not active)"
- COMPOUND: "N=C(N)N/N=C/c1ccc(OCc2ccc(Cl)cc2Cl)cc1"
  EC50: "> 120 µM (not active)"

---

# Tested on: INS1
# PROCEDURE TEXT: INS-1E survival protection against cytokine death – cell-based, luminescence, retest, dose response (AID 449756);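 note: cell death triggered by IL-1 beta plus TNF-alpha plus IFN-gamma mixture; protective hits raise ATP signal compared with cytokine alone wells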
# Format: functional
# MEASUREMENT PARAMETERS: Rattus norvegicus
The source made the active and inactive calls.
Classes used: active, inactive

- MOLECULE: "O=C(N/N=C/c1cc(Br)c(O)c(Br)c1O)c1ccc2c(c1)OCCO2"
  ASSIGNED CLASS: "active"
- MOLECULE: "CCc1ccc(C2CC(c3cccc(Cl)c3)n3nc(N)nc3N2)cc1 (stereo unspecified)"
  ASSIGNED CLASS: "inactive"
- MOLECULE: "CN(C)CCCn1cnc2c(c1=N)C(c1ccccc1)c1ccc3ccccc3c1O2 (stereo unspecified)"
  ASSIGNED CLASS: "active"
- MOLECULE: "CCCCCCc1cc2cc(C(=O)Nc3ccccc3)c(=O)oc2cc1O"
  ASSIGNED CLASS: "active"
- MOLECULE: "CCCCn1c(/C=N/Nc2nc3ccccc3[nH]2)nc2ccccc21"
  ASSIGNED CLASS: "active"
- MOLECULE: "O=C(NNC(=O)C12CC3CC(CC(C3)C1)C2)c1ccccn1"
  ASSIGNED CLASS: "active"

---

Measured IC50 of individual entries
# MEASURED ON: UniProt:P03070
# Sequence (P03070 whole entry): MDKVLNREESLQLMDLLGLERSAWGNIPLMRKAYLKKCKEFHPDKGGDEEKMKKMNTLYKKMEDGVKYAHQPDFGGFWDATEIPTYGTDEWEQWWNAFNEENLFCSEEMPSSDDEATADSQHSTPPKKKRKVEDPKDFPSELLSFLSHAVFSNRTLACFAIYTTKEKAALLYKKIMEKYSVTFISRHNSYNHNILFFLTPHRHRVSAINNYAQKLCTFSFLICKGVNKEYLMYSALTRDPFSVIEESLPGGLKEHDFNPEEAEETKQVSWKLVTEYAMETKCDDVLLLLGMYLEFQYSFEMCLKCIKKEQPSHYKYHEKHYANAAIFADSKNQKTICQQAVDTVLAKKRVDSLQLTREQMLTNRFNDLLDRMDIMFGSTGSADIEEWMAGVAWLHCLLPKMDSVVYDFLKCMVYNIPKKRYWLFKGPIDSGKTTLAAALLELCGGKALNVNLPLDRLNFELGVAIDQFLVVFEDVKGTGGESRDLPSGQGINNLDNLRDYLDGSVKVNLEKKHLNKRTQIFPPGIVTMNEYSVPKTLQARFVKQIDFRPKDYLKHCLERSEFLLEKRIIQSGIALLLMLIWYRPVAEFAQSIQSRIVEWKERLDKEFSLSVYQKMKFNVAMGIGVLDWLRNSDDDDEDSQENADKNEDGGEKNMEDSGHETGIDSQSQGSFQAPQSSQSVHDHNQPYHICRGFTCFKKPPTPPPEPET
# Assay type: functional, Betapolyomavirus macacae
Calls of active or inactive are those of the source.

- COMPOUND: "CCN(CC)S(=O)(=O)c1ccc(C(=O)Oc2coc(CSc3nc(C)cc(C)n3)cc2=O)cc1"
  IC50: "40.4 µM (active)"
- COMPOUND: "O=C(CCl)Nc1ccc(N2CCCCCC2)cc1"
  IC50: "18.9 µM (active)"
- COMPOUND: "N#Cc1c(N/C=C2\\C(=O)NC(=O)N(Cc3ccco3)C2=O)sc2c1CCCC2"
  IC50: "32.6 µM (active)"
- COMPOUND: "O=S(=O)(NC1=NCCCCC1)c1ccc2sc(NS(=O)(=O)c3ccc4ccccc4c3)nc2c1"
  IC50: "39.4 µM (active)"
- COMPOUND: "O=C(Cn1sc2ccccc2c1=O)NC12CC3CC(CC(C3)C1)C2"
  IC50: "14 µM (active)"
- COMPOUND: "Oc1cc2c(cc1O)C1c3ccc(O)c(O)c3OCC1(O)C2 (configuration not stated)"
  IC50: "4.66 µM (active)"
- COMPOUND: "CCOc1cc(/C=C2\\C(=O)NN(c3ccccc3)C2=O)cc([N+](=O)[O-])c1O"
  IC50: "> 100 µM (active)"
